- protocol: Secondary Assay for lipid storage modulators: Hela cell LDSA assay for probe SAR
- assay-context: HeLa lipid droplet accumulation, BODIPY 493/503 cytometry, oleate-fed; series mostly up to 46.1 µM
Inconclusive results are not listed. The source made the active and inactive calls. Calls follow the shape of the dose curve; as a rule, active = well fitted curve in the direction sought with a large enough effect; inconclusive = small, poorly fitted or top-dose-only effect, or effect the other way, or another doubt; inactive = no such curve, though single readings can be large or run the other way.
Labels: True = active, False = inactive

- compound: "O=C(NC1CCCCC1)NC1(C(=O)N2CCCC2)CCCCC1"
  category: "False"
- compound: "COc1ccc(CCNC(=O)c2cc3sccc3n2Cc2ccccc2)cc1OC"
  category: "False"
- compound: "O=C(Cc1ccccc1)NC1CCCc2c1cnn2-c1ccc(F)cc1F (stereo not given)"
  category: "False"
- compound: "O=C(NC1CCCc2c1cnn2-c1cc(F)cc(F)c1)c1cccc2nccnc12 (stereo not given)"
  category: "True"
- compound: "O=C(NC1CCCc2c1cnn2-c1ccc(F)cc1F)c1ccn[nH]1 (stereo not given)"
  category: "False"
- compound: "O=C(NC1CCCc2c1cnn2-c1ccc(F)cc1F)c1ccccc1 (stereo not given)"
  category: "False"
- compound: "O=C(NC1CCCc2c1cnn2-c1ccc(F)cc1F)C1CCCCN1 (stereo not given)"
  category: "False"
- compound: "CCOC(=O)C1CCN(C(=O)C2(NC(=O)NCc3ccccc3)CCCCC2)CC1"
  category: "False"
- compound: "CN(C)CC(=O)NC1CCCc2c1cnn2-c1ccc(F)cc1F (stereo not given)"
  category: "False"
- compound: "COc1ccc(-c2cnc(SCC(=O)Nc3nccs3)n2Cc2ccccc2)cc1"
  category: "False"

These entries and their values trace back to PubChem BioAssay AID488900.
